- ASSAY_TEXT: chemical genetic growth profiling, strain panel (AID 1159580);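 note: tested at 20 µM; growth read once vehicle control cultures reached saturation at 30 °C; 1 = growth at the plate median or of vehicle wells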
- RECORDED_CONDITIONS: S. cerevisiae deletion strains, growth OD, locus YLR342W, strain FKS1 (second series)
Hit rate of the full screen: of about 5,500 compounds, about 2,000 (36%) were called active. Another 18% or so got no clear call; they are omitted. Cut-off read from the data, not from the text of the source: active = normalized growth mostly below about 0.91 (no sharp cut-off); inconclusive = no clear call, values can overlap the other calls; inactive = mostly above about 0.92. The list shows a part of the results.
Can you answer with just one of these options? TRUE = active, FALSE = inactive

CCN(CC)CCOC(=O)C(Cc1cccc2ccccc12)CC1CCCO1 (stereo unspecified) :: FALSE
NC(=O)N/N=C\c1ccc([N+](=O)[O-])o1 :: FALSE
CN1CCc2cccc3c2C1Cc1ccc(O)c(O)c1-3 (stereo unspecified) :: FALSE
C[C@@H]1C[C@@H]([C@H](O)CC2CC(=O)NC(=O)C2)C(=O)[C@@H](C)C1 :: TRUE
C#C[C@]1(O)CCC2C3CCc4cc(O)ccc4C3CC[C@@]21C (stereo partly specified) :: TRUE

Now look at this entry.
Hello, I am checking results. What call was entered for O=C1OCCN1/N=C\c1ccc([N+](=O)[O-])o1 ?
FALSE

----------
- ASSAY_TEXT: chemical genetic growth profiling, strain panel (AID 1159580)
- RECORDED_CONDITIONS: S. cerevisiae deletion strains, growth OD, locus YAL013W, strain DEP1, stronger effect = lower value
Hit rate of the full screen: of about 5,500 compounds, about 2,000 (36%) were called active. Roughly 18% stayed inconclusive and do not appear here. Some of the results follow.
Listed below: normalized growth values for each entry.
// no unit string in output, number only

Record excerpt, results attached:
CCOC(=O)CCc1cc(N=Cc2cc(Cl)cc(Cl)c2O)c(O)c(N=Cc2cc(Cl)cc(Cl)c2O)c1 :: 0.257
COc1ccccc1OCC(O)CN1CCN(CC(=O)Nc2c(C)cccc2C)CC1 (configuration not stated) :: 0.996
CCOC(=O)c1cc(-c2ccc(N)cc2)oc1C :: 0.943
CN(C)c1ccc(/C=N\NC(=O)CCc2ccc(O)cc2)c(Cl)c1 :: 1.01

Data point: ON(Cc1c(F)cccc1Cl)Cc1c(F)cccc1Cl ; normalized growth = 0.985

----------
Listed below: normalized growth values for each entry.
- ASSAY_TEXT: chemical genetic growth profiling, strain panel (AID 1159580)
- RECORDED_CONDITIONS: S. cerevisiae deletion strains, growth OD, locus YOR144C, strain elg1, stronger effect = lower value
Out of some 5,500 compounds screened, about 2,000 (36%) were called active. Roughly 18% stayed inconclusive and do not appear here. Some of the results follow.
// no unit string in output, number only

Record excerpt, results attached:
NCCCCN=C(N)N :: 0.984
CCOP(=S)(OCC)Oc1ccc2c(C)c(Cl)c(=O)oc2c1 :: 0.985
O=c1ccn([C@@H]2O[C@H](COP(=O)(O)OP(=O)(O)OP(=O)(O)O)[C@@H](O)[C@H]2O)c(=O)[nH]1 :: 0.992
C=CCN1CC[C@]23c4c5ccc(O)c4OC2C(=O)CC[C@@]3(O)[C@H]1C5 (stereo partly specified) :: 1
Cc1ccc(C(C)C)cc2c(C)ccc1-2 :: 1.02

Data point: O=C(O)CCCCC1SCC2NC(=O)NC21 (stereo unspecified) ; normalized growth = 0.988

----------
- ASSAY_TEXT: chemical genetic growth profiling, strain panel (AID 1159580);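 note: tested at 20 µM; growth read once vehicle control cultures reached saturation at 30 °C; 1 = growth at the plate median or of vehicle wells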
- RECORDED_CONDITIONS: S. cerevisiae deletion strains, growth OD, locus YNL209W, strain ssb2, stronger effect = lower value
The campaign covered roughly 5,500 compounds. About 2,000 (36%) were called active. Another 18% or so got no clear call; they are omitted. Some of the results follow.
Listed below: normalized growth values for each entry.

CC1(C)C2CC(=O)O[C@@]3(C)C4=CC(=O)O[C@@H](c5ccoc5)[C@]4(C)CCC3[C@@]2(C)C=C[C@H]1O (stereo not given in full) :: 1.01 (inactive)
CC[C@]1(O)CC2CN(CCc3c([nH]c4ccccc34)[C@@](C(=O)OC)(c3cc4c(cc3OC)N(C=O)[C@H]3[C@@](O)(C(=O)OC)[C@H](OC(C)=O)[C@]5(CC)C=CCN6CC[C@]43[C@@H]65)C2)C1 (stereo not given in full) :: 1 (inactive)
Nc1nc2ncc(CNc3ccc(C(=O)N[C@@H](CCC(=O)O)C(=O)O)cc3)nc2c(=O)[nH]1 :: 0.998 (inactive)
C[C@]12CCC3c4ccc(OS(=O)(=O)O)cc4CCC3C1CCC2=O (stereo not given in full) :: 0.985 (inactive)
CCCCC(CC)CN=C(N)NC(N)=NCCCCCCN=C(N)NC(N)=NCC(CC)CCCC (stereo not given) :: 0.0592 (active)
CCOC(=O)c1ccc(N)cc1 :: 0.993 (inactive)

Data point: COc1cc2c(cc1O)CC1c3c(cc(O)c(OC)c3-2)CCN1C (stereo not given) ; normalized growth = 1.01 (inactive)

Data point: C#C[C@]1(O)CCC2C3CCc4cc(OC)ccc4C3CC[C@@]21C (stereo not given in full) ; normalized growth = 0.974 (inactive)

Data point: Cc1ccc(C(C)C)cc2c(C)ccc1-2 ; normalized growth = 1.01 (inactive)

Data point: COc1ccc(CN(CCN(C)C)c2ncccn2)cc1 ; normalized growth = 1.03 (inactive)

Data point: CN(Cc1cnc2nc(N)nc(N)c2n1)c1ccc(C(=O)NC(CCC(=O)O)C(=O)O)cc1 (stereo not given) ; normalized growth = 0.913 (active)

Data point: Nc1nccs1 ; normalized growth = 0.991 (inactive)

Data point: CC1(C)CC2C1CCC1(C)OC2(C)CCC1O (stereo not given) ; normalized growth = 1.02 (inactive)

Data point: O=C(NC(Cc1cc(=O)[nH]c2ccccc12)C(=O)O)c1ccc(Cl)cc1 (stereo not given) ; normalized growth = 1 (inactive)

Data point: c1cc2c(cc1[C@H]1OC[C@H]3[C@@H]1CO[C@H]3c1ccc3c(c1)OCO3)OCO2 ; normalized growth = 0.958 (inactive)

Data point: Nc1nc2c(c(=O)[nH]1)N(C=O)C(CNc1ccc(C(=O)N[C@@H](CCC(=O)O)C(=O)O)cc1)CN2 (stereo not given in full) ; normalized growth = 0.986 (inactive)

Data point: COC(=O)[C@H]1[C@H]2C[C@@H]3c4[nH]c5cc(OC)ccc5c4CCN3C[C@H]2C[C@@H](OC(=O)c2cc(OC)c(OC)c(OC)c2)[C@@H]1OC ; normalized growth = 0.984 (inactive)

Data point: Cc1cccc(CN2CCN(C(c3ccccc3)c3ccc(Cl)cc3)CC2)c1 (stereo not given) ; normalized growth = 0.54 (active)

Data point: CC12CCCC(O)(C1)C1CC(C)(C)C1CC2 (stereo not given) ; normalized growth = 1 (inactive)

Data point: CCOP(=S)(OCC)Oc1ccc2c(C)c(Cl)c(=O)oc2c1 ; normalized growth = 0.957 (inactive)

----------
- ASSAY_TEXT: chemical genetic growth profiling, strain panel (AID 1159580);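 note: tested at 20 µM; growth read once vehicle control cultures reached saturation at 30 °C; 1 = growth at the plate median or of vehicle wells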
- RECORDED_CONDITIONS: S. cerevisiae deletion strains, growth OD, locus YJL092W, strain hpr5
The campaign covered roughly 5,500 compounds. About 2,000 (36%) were called active. Not shown: some 18% with an inconclusive outcome. No stated cut-off is given here; in the data, active means normalized growth mostly below about 0.91 (no sharp cut-off); inconclusive means no clear call, values can overlap the other calls; inactive means mostly above about 0.92. The list shows a part of the results.
Can you answer with just one of these options? active, inactive

Use these answered entries as a reference point.
O=C(NC(Cc1cc(=O)[nH]c2ccccc12)C(=O)O)c1ccc(Cl)cc1 (stereo not drawn) :: inactive
NCc1ccc(S(N)(=O)=O)cc1 :: inactive
Nc1nc2c(c(=O)[nH]1)N(C=O)C(CNc1ccc(C(=O)N[C@@H](CCC(=O)O)C(=O)O)cc1)CN2 (stereo partly drawn) :: inactive

Now look at this entry.
Hello, I am checking results. What call was entered for C=CCN1CC[C@]23c4c5ccc(O)c4OC2C(=O)CC[C@@]3(O)[C@H]1C5 (stereo partly drawn) ?
inactive

----------
- ASSAY_TEXT: chemical genetic growth profiling, strain panel (AID 1159580);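 note: tested at 20 µM; growth read once vehicle control cultures reached saturation at 30 °C; 1 = growth at the plate median or of vehicle wells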
- RECORDED_CONDITIONS: S. cerevisiae deletion strains, growth OD, locus YAL040C, strain CLN3, stronger effect = lower value
Screen size: about 5,500 compounds; about 2,000 (36%) were called active. About 18% were inconclusive and are not listed. This is one part of the list.
Listed below: normalized growth values for each entry.

Record excerpt, results attached:
CCOC(=O)Nc1ccc(NCc2ccc(F)cc2)nc1N :: 1.01 (inactive)
CCN1C(=O)C=CC1=O :: 1 (inactive)

Data point: Nc1nc(N)c2nc(CNc3ccc(C(=O)NC(CCC(=O)O)C(=O)O)cc3)cnc2n1 (stereo unspecified) ; normalized growth = 0.994 (inactive)

Data point: CN(Cc1cnc2nc(N)nc(N)c2n1)c1ccc(C(=O)NC(CCC(=O)O)C(=O)O)cc1 (stereo unspecified) ; normalized growth = 1.09 (inactive)

Data point: CC1=C(/C=C/C(C)=C/C=C/C(C)=C/C(=O)Nc2ccc(O)cc2)C(C)(C)CCC1 ; normalized growth = 1.09 (inactive)

Data point: CN(Cc1cnc2nc(N)nc(N)c2n1)c1ccc(C(=O)N[C@H](CCC(=O)O)C(=O)O)cc1 ; normalized growth = 1 (inactive)
